Test: Cytotoxicity against mouse NCTC-929 cells at […] after 48 hrs by resazurin staining-based fluorescence assay
Format: cell-based
Conditions: read-out: INH

{"compound": "CC1CS(=O)(=O)CCN1/N=C/c1ccc([N+](=O)[O-])o1 (stereo not drawn)", "cytotoxicity at 48 h, […]": "26.8%"}
{"compound": "Clc1ccc2c(NCc3ccccc3)ccnc2c1", "cytotoxicity at 48 h, […]": "71.4%"}
{"compound": "O=C(Cn1ccnc1[N+](=O)[O-])NCc1ccccc1", "cytotoxicity at 48 h, […]": "17.4%"}

---

Experiment: in vitro
Settings: mouse, NCTC-929 cells
Description: Selectivity index, ratio of LC50 for mouse NCTC-929 cells to IC50 for amastigote stage of Trypanosoma cruzi CL Brener infected in mouse NCTC-929 cells
measured endpoint: selectivity ratio

{"molecule": "O=C(Cn1ccnc1[N+](=O)[O-])NCc1ccccc1", "measured endpoint": "selectivity ratio", "reported measurement": "> 320"}

---

Assay: Selectivity index, ratio of LC50 for mouse NCTC-929 cells to IC50 for epimastigote stage of Trypanosoma cruzi CL Brener
Format: toxicity, cell-based
Details: read-out: Ratio LC50/IC50

{"compound": "Clc1ccc2c(NCc3ccccc3)ccnc2c1", "relation qualifier": "=", "selectivity ratio": 3.71}
{"compound": "O=C1CSC(c2ccc3c(c2)OCO3)N1CCNc1ccnc2cc(Cl)ccc12 (stereo not drawn)", "relation qualifier": "=", "selectivity ratio": 2.85}
{"compound": "O=C(Cn1ccnc1[N+](=O)[O-])NCc1ccccc1", "relation qualifier": ">", "selectivity ratio": 9.44}

---

The entries below are paired with their reported inhibition of growth at […].
System: Trypanosoma cruzi
Assay: Antimicrobial activity against epimastigote stage of Trypanosoma cruzi CL Brener assessed as growth inhibition at […] after 72 hrs by beta-galactosidase reporter gene assay
Type: functional
Details: read-out: GI
measured endpoint: inhibition of growth at […] (%)

{"molecule": "CC1CS(=O)(=O)CCN1/N=C/c1ccc([N+](=O)[O-])o1 (centres undefined)", "measured endpoint": "inhibition of growth at […]", "reported measurement": 100}
{"molecule": "Clc1ccc2c(NCc3ccccc3)ccnc2c1", "measured endpoint": "inhibition of growth at […]", "reported measurement": 95.1}
{"molecule": "O=C1CSC(c2ccc3c(c2)OCO3)N1CCNc1ccnc2cc(Cl)ccc12 (centres undefined)", "measured endpoint": "inhibition of growth at […]", "reported measurement": 84.3}
{"molecule": "O=C(Cn1ccnc1[N+](=O)[O-])NCc1ccccc1", "measured endpoint": "inhibition of growth at […]", "reported measurement": 82}
